Kindly find below pKi information for UniProtKB Q9Y5Y4 taken from the literature.
pKi: −log10 of the molar value.

structure | pKi
CCCc1nc2cc(NS(=O)(=O)c3ccc(F)cc3)ccc2n1CC(=O)O | > 6.00

I would be grateful if you could provide pKi for each of the following entries.
1. Cc1c(S(=O)(=O)Nc2ccccc2)c2cc(F)ccc2n1CC(=O)O
2. Cc1nc2c(Cl)ccc(OCC(=O)O)c2c(OC(F)F)c1Cc1ccc(Cl)cc1
3. Cc1c(Cc2ccc(S(C)(=O)=O)cc2)c(C#N)nc2c(Cl)ccc(OCC(=O)O)c12

Result:
[6.63, "> 7.00", "> 7.00"]

Ask: Param item = CCc1nc2c(Cl)ccc(OCC(=O)O)c2c(OC(F)F)c1Cc1ccc(Cl)cc1F ; retrieve measured pKi.
Result: > 7.00

* * *

Kindly find below Ki information for hCRTH2 receptor (Homo sapiens (Human), UniProt Q9Y5Y4) taken from the literature.

Here is how some compounds turned out for Ki.
compound | Ki
CCCc1nc2cc(N(Cc3cccc(F)c3)S(=O)(=O)c3ccc(F)cc3)ccc2n1CC(=O)O | < 1000 nM
Cc1nc2c(Cl)ccc(OCC(=O)O)c2c(C)c1Cc1ccc(S(C)(=O)=O)cc1 | < 100 nM

I would be grateful if you could provide Ki for each of the following entries.
1. COC(C(=O)N(C)[C@@H]1CCc2c(CC(=O)O)c3ccccc3n2C1)c1ccccc1 (stereo partly drawn)
2. Cc1c(C2NS(=O)(=O)c3ccccc32)c2ccccc2n1CC(=O)O (stereo not drawn)

Result:
["10 to 50 nM", "< 10000 nM"]

I would be grateful if you could provide Ki for each of the following entries.
1. CCc1nc2c(F)ccc(OCC(=O)O)c2c(OC(F)F)c1Cc1ccc(S(=O)(=O)N2CCOCC2)cc1
2. Cc1c(Cc2ccc(S(C)(=O)=O)cc2Cl)c(OC(F)F)nc2c(F)ccc(OCC(=O)O)c12

Result:
["< 100 nM", "< 100 nM"]

I would be grateful if you could provide Ki for each of the following entries.
1. O=C(O)Cn1cc(C2=NN(Cc3ccccc3)S(=O)(=O)c3ccccc32)c2ccccc21
2. CC(c1ccccc1)c1cnnn1C1CCc2c(CC(=O)O)c3ccccc3n2C1 (single isomer, unassigned)
3. C=C(c1ccc(F)cc1)c1cnnn1C1CCc2c(CC(=O)O)c3ccccc3n2C1 (stereo not drawn)

Result:
1: < 1000 nM; 2: ≤ 5 nM; 3: ≤ 5 nM

* * *

Kindly find below pKi information for hCRTH2 receptor (Homo sapiens (Human)) taken from the literature.
pKi: −log10 of the molar value.

molecule | measured-on | pKi
Cc1onc(-c2ccccc2)c1CN1C(c2c(C)n(CC(=O)O)c3ccc(Cl)cc23)c2ccccc2S1(=O)=O (stereo not drawn) | hCRTH2 receptor (Homo sapiens (Human)) | > 7.00

I would be grateful if you could provide pKi for each of the following entries.
1. Cc1nc2c(Cl)ccc(OCC(=O)O)c2c(OC(F)F)c1Cc1ccc(S(C)(=O)=O)cc1Cl
2. O=C(O)Cc1c2n(c3ccccc13)C[C@H](N(Cc1ccc(F)cc1)C(=O)Cc1ccc(F)cc1)CC2
3. CCCc1nc2cc(N(Cc3ccccc3)C(=O)CC(C)C)ccc2n1CC(=O)O
4. Cc1ccc2c(c1)c(C1c3ccccc3S(=O)(=O)N1Cc1cccc(C(F)(F)F)c1)cn2CC(=O)O (stereo not drawn)
5. Cc1c(C2=NN(Cc3ccc(OC(F)(F)F)cc3)S(=O)(=O)c3ccccc32)c2cc(F)ccc2n1CC(=O)O

Result:
> 7.00
≥ 8.30
> 5.00
> 5.00
> 6.00

I would be grateful if you could provide pKi for each of the following entries.
1. O=C(O)Cc1c2n(c3ccccc13)CC(n1nncc1Cc1ccc(F)cc1)CC2 (single isomer, unassigned)
2. Cc1nc2c(Cl)ccc(CC(=O)O)c2c(OC(F)F)c1Cc1ccc(Cl)cc1

Result:
1. 7.00 to 7.30
2. > 6.00

Ask: Param item = CCCc1nc2cccc(N(Cc3ccccc3)S(=O)(=O)c3ccc(F)cc3)c2n1CC(=O)O ; retrieve measured pKi.
Result: < 5.00
